Origin of the recorded values: ChEMBL document CHEMBL4483862

Tested on: Plasmodium berghei
Assay: Luciferase/luciferin-expressing antifolate-resistant parasites were used to infect a culture of HepG2 cells that were pre-incubated with compounds. Infected hepatocytes emit light due to the luciferase reaction. Assay results are presented as the percent inhibition of light emission compared to control. […]
Type: functional
Conditions: sporozoite, FFLUC_HILL_SLOPE 11.3, FFLUC_R_SQUARED 0.353, PBLUC_HILL_SLOPE 1.04, PBLUC_R_SQUARED 0.705, read-out: LUCIFERASE INFECTION ASSAY - IC50
outcome measure: IC50 (µM)
Answers are plain numbers, in µM.

Form field, IC50 with Plasmodium berghei, item COc1ccccc1/C=C(/C(=O)OC(C(=O)c1c[nH]c2ccccc12)c1ccccc1)c1ccccc1 (stereo unspecified) : 3.6
